Numbers sourced from paper PMC11197489.

# Assay system: hYBX2 CSD W100F (ITC) (human, UniProt Q9Y2T7 85-177, I92T;Q93K;W100F)
# Sequence (Q9Y2T7 85-177 I92T/Q93K/W100F): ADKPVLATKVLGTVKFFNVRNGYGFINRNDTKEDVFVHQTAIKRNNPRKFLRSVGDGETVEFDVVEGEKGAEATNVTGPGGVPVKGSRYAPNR
# Experimental details: ITC; ITC: 25 C, iTC200, buffer not stated (protein stock 10 mM Tris-HCl pH 8.0, 100 mM NaCl, 1 mM DTT); EMSA: 50 mM Tris-HCl pH 7.5, 100 mM NaCl, 0.4 mM EDTA, 0.1% NP-40, 1 mM DTT, 50% glycerol, BSA, on ice, 0.2% glutaraldehyde; pull-down: 100 mM NaCl, 10 mM Tris-HCl pH 7.6, 2 mM EDTA, 0.5% NP-40, 4 C
# Experimental context: protein: recombinant; tags: His6-SUMO removed by Ulp1
Task for the reader: assign each of the following binders its reported pKd.
Scale: pKd equals -log10([C]), with [C] in mol/L.

Need pKd of UCAUCUCU (ssRNA, m5C at position 5) [ITC m5C RNA UCAU(m5C)UCU] , thanks.
5.63

Need pKd of UCAUCUCU (ssRNA) [ITC unme-C RNA] , thanks.
5.59
